biological target: HIS-PDZ1-2 protein (PSD-95 PDZ1-2 tandem, residues 61-249, with tag …) (human, UniProt P78352 61-249); test: FP saturation binding
Ends that are not written are not given here. * marks the point of attachment. 5FAM = O=C1OC2(c3ccc(O)cc3Oc3cc(O)ccc32)c2ccc(C(=O)*)cc21
Measured attribute: Kd (nM)
Return type: number; implicit unit nM.

Kindly note the recorded Kd for 5FAM-KSGYEKLSSIESDV (also: entry also covers Cy5-NR2B: CSG linker, Cy5-maleimide on Cys, Kd said to be independent of the fluorophore; also called 5-FAM-NR2B; 5-Fam-NR2B peptide) [5-FAM/Cy5-NR2B] , which is 1700
